Data provenance: PubChem BioAssay AID1159580

Test: chemical genetic growth profiling, strain panel (AID 1159580);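 also: tested at 20 µM; growth read once vehicle control cultures reached saturation at 30 °C; lower values mean less growth of the strain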
Conditions: S. cerevisiae deletion strains, growth OD, locus YEL003W, strain gim4
Screen size: about 5,500 compounds; about 2,000 (36%) were called active. Another 18% or so got no clear call; they are omitted. Rule as the data show it: active = normalized growth mostly below about 0.91 (no sharp cut-off); inconclusive = no clear call, values can overlap the other calls; inactive = mostly above about 0.92. This is one part of the list.
I would appreciate it if you answered using one of these outcomes: Yes = active, No = inactive

compound: S=c1ccss1
class assignment: No

compound: COc1ccc(-c2cc(=O)c3cc(OC)ccc3o2)cc1
class assignment: No

compound: O=C(O)c1nc2cc(Cl)c(Cl)cc2[nH]c1=O
class assignment: No

*Q* Tell me the assay call for O=C(/C=C/c1ccccc1)c1ccc(O)cc1 please.
*A* Yes

*Q* Record: COc1cccc2c1cc([N+](=O)[O-])c1c(C(=O)O)cc3c(c12)OCO3
*A* No

*Q* How about Nc1ccc(C(=O)O)c(O)c1 ?
*A* No
